All figures here come from ChEMBL document CHEMBL2396650.

Reported t1/2 values are given for each entry in this list.
Tested on: Liver microsomes
Experiment: Half life in rat liver microsomes
Format: ADME, Microsome
Entry rule: numbers only, all in min.

>  <chem-smiles>
CC(C)(C)C[C@H]1N[C@@H](C(=O)NCC[C@H](O)CO)[C@H](c2cccc(Cl)c2)[C@@]12C(=O)Nc1cc(Cl)c(F)cc12

>  <measured-number>
20.2

$$$$
>  <chem-smiles>
CC(C)(C)C[C@@H]1N[C@@H](C(=O)N[C@H]2C[C@H](O)C2)[C@H](c2cccc(Cl)c2F)[C@]12C(=O)Nc1cc(Cl)ccc12

>  <measured-number>
19.1

$$$$

Give its t1/2 value. Item: CC(C)(C)C[C@@H]1N[C@@H](C(=O)N[C@H]2C[C@@H](O)C2)[C@H](c2cccc(Cl)c2F)[C@]12C(=O)Nc1cc(Cl)ccc12 22.1

----------
Reported t1/2 values are given for each entry in this list.
Test system: Liver microsomes
Assay: Half life in human liver microsomes
Type: ADME, Microsome
Entry rule: numbers only, all in min.

>  <chem-smiles>
CC(C)(C)C[C@@H]1N[C@@H](C(=O)N[C@H]2CC[C@H](O)C2)[C@H](c2cccc(Cl)c2F)[C@]12C(=O)Nc1cc(Cl)ccc12

>  <t1/2 / min>
55.1

$$$$
>  <chem-smiles>
CC(C)(C)C[C@@H]1N[C@@H](C(=O)N[C@H]2CC[C@@H](O)C2)[C@H](c2cccc(Cl)c2F)[C@]12C(=O)Nc1cc(Cl)ccc12

>  <t1/2 / min>
4

$$$$
>  <chem-smiles>
CC(C)(C)C[C@@H]1N[C@@H](C(=O)N[C@H]2C[C@@H](O)C2)[C@H](c2cccc(Cl)c2F)[C@]12C(=O)Nc1cc(Cl)ccc12

>  <t1/2 / min>
30.8

$$$$

Give its t1/2 value. Item: CC(C)(C)C[C@@H]1N[C@@H](C(=O)N[C@H]2C[C@H](O)C2)[C@H](c2cccc(Cl)c2F)[C@]12C(=O)Nc1cc(Cl)ccc12 54.1
